The origin of these recorded values is patent US11834453B2.

This section presents compounds with their documented pIC50 values.
target: ErbB2 with Exon 20 YVMA insertion (HER2-YVMA) (Homo sapiens (Human), UniProt P04626, INS775YVMA); assay: Cellular phosphorylation assay, constitutive ErbB2 phosphorylation (Y1196) in engineered NIH 3T3 cells, Assay 4
Sequence (P04626 other isoform, or with tags, fused parts or gaps ins YVMA behind 775): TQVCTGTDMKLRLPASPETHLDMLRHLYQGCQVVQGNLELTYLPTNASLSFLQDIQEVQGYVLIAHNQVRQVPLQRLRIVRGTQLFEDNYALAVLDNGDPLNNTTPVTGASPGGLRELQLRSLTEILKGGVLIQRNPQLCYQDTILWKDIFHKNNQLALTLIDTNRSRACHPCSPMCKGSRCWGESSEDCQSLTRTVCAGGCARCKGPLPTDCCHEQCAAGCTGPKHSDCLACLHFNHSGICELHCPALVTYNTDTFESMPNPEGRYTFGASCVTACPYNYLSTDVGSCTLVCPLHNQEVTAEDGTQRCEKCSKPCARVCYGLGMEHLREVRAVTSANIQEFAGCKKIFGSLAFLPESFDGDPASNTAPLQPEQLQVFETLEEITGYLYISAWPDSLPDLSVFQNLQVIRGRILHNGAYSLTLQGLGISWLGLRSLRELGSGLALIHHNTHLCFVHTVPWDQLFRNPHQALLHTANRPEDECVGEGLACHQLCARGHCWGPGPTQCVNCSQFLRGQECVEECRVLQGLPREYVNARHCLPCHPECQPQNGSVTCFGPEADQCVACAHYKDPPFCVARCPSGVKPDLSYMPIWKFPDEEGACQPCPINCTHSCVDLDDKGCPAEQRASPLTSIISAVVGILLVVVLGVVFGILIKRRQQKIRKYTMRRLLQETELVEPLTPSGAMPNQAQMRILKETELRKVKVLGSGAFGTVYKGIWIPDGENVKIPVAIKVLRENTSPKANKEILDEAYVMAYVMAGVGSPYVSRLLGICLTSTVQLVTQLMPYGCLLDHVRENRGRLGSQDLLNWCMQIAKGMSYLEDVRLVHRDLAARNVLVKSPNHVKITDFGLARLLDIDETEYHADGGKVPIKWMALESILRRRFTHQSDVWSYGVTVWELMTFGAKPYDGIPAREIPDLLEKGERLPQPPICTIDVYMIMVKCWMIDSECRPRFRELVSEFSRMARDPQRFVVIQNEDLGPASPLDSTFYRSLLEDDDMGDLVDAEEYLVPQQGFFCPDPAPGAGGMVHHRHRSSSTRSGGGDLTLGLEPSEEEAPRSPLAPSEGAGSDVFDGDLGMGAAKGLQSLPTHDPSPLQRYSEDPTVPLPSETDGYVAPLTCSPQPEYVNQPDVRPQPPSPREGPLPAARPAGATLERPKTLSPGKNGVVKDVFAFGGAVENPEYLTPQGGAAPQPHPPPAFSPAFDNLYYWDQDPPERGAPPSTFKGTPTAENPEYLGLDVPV
pIC50: −log10 of the molar value.
ATTRIBUTE MEASURED: pIC50

CON1CCN(c2ncc3ncnc(Nc4ccc(Oc5ccc6c(c5)ncn6C)c(C)c4)c3n2)CC1 : 8.11
Cc1cc(Nc2ncnc3cnc(N4CC(F)(F)C4)nc23)ccc1Oc1ccc2c(c1)ncn2C : 7.19
CCOc1ncc2ncnc(Nc3ccc(Oc4ccc5c(c4)ncn5C)c(C)c3)c2n1 : 6.53
Cc1cc(Nc2ncnc3cnc(-c4cscn4)nc23)ccc1Oc1ccc2c(c1)ncn2C : 8.25

----------
Recorded below: IC50, system EGFR (Homo sapiens (Human), UniProt P00533).
ATTRIBUTE MEASURED: IC50 (µM)

O[C@@H]1[C@@H]2CC[C@H]1CN(c1ncc3ncnc(Nc4ccc(Oc5ccn6ncnc6c5)c(Cl)c4)c3n1)C2 [Example 341] : 1.74
O[C@@H]1C[C@@H]2C[C@H]1CN2c1ncc2ncnc(Nc3ccc(Oc4ccn5ncnc5c4)c(Cl)c3)c2n1 [Example 333] : 2.23
CO[C@@H]1CN(c2ncc3ncnc(Nc4ccc(Oc5ccc6c(c5)ncn6C)c(C)c4)c3n2)C[C@@H]1O [Example 194] : 8.73
Cc1cc(Nc2ncnc3cnc(N4C[C@@H](O)C5(CC5)C4)nc23)ccc1Oc1ccc2c(c1)ncn2C [Example 211] : 3.14
Cc1c(Oc2ccn3ncnc3c2)ccc(Nc2ncnc3cnc(N4C[C@@H](O)C(F)(F)C4)nc23)c1F [Example 316] : 5.04
Cc1cc(Nc2ncnc3cnc(N4CC[C@@H](C(F)F)C4)nc23)ccc1Oc1ccn2ncnc2c1 [Example 400] : 8.42

----------
target: ErbB2 insYVMA (HER2-YVMA, SEQ ID NO: 2) (Homo sapiens, UniProt P04626, INS775YVMA/P1170A); experiment: biochemical; conditions: ErbB2 insYVMA enzyme assay; read-out: Assay 1 IC50
Sequence (P04626 with tags, fused parts or gaps INS775YVMA/P1170A limits assumed): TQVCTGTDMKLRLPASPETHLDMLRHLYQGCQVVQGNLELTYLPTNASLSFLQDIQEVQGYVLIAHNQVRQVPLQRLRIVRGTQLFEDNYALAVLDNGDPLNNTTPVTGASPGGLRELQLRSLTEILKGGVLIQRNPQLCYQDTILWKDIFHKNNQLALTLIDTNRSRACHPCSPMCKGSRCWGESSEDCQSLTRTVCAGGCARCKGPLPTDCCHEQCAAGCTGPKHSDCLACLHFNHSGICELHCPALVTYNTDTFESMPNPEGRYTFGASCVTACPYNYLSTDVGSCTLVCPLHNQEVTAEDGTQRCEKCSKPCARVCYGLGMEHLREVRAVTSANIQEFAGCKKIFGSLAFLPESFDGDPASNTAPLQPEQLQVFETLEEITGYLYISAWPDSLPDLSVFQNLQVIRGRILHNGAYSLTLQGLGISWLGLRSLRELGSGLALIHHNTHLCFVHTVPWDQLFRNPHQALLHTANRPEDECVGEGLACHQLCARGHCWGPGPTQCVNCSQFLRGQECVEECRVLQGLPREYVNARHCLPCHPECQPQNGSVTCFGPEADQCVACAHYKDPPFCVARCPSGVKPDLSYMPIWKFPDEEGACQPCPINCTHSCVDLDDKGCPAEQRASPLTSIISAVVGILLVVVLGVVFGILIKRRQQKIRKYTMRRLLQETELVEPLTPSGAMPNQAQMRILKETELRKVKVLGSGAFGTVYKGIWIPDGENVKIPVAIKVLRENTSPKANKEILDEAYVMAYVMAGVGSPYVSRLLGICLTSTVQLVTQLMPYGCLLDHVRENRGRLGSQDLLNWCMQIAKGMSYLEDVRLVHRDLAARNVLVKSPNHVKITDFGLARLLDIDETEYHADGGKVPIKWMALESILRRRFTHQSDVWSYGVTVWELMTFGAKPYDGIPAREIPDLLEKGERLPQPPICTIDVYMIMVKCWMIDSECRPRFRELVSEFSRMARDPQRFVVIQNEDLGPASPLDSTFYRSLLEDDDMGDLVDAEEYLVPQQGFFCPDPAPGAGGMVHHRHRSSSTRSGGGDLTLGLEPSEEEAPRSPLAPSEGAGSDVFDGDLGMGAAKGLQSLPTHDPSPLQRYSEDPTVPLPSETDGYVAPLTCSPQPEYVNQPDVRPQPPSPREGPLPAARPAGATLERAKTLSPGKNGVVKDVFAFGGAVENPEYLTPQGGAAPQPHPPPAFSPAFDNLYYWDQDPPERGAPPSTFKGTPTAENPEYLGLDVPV
ATTRIBUTE MEASURED: IC50 (nM)

Cc1cc(Nc2ncnc3cnc(NC4=NC(C)(C)CO4)nc23)ccc1Oc1ccc2c(c1)ncn2C : 34.6
Cc1cc(Nc2ncnc3cnc(N4CCCC4)nc23)ccc1Oc1ccc2c(c1)ncn2C : 34.4
Cc1cc(Nc2ncnc3cnc(N4CCN5CCOC[C@@H]5C4)nc23)ccc1Oc1ccc2c(c1)ncn2C : 21.5
CO[C@@H]1CCN(c2ncc3ncnc(Nc4ccc(Oc5ccn6ncnc6c5)c(C)c4)c3n2)C1 : 24.6
CC1(C)CN(c2ncc3ncnc(Nc4ccc(Oc5ccn6ncnc6c5)c(Cl)c4)c3n2)CCO1 : 34.3
CON1CCN(c2ncc3ncnc(Nc4ccc(Oc5ccn6ncnc6c5)c(C)c4F)c3n2)CC1 : 25.2
Cc1cc(Nc2ncnc3cnc(N4CC[C@H](C(F)F)C4)nc23)ccc1Oc1ccn2ncnc2c1 : 11.7
Cc1c(Oc2ccc3c(c2)ncn3C)ccc(Nc2ncnc3cnc(N(C)[C@H]4C[C@@](C)(O)C4)nc23)c1F : 17.3
Cc1cc(Nc2ncnc3cnc(O[C@H]4CCN(C)C[C@H]4F)nc23)ccc1Oc1ccc2c(c1)ncn2C : 98.1
Cc1cc(Nc2ncnc3cnc(NC4CCCC4)nc23)ccc1Oc1ccc2c(c1)ncn2C : 95
Cc1cc(Nc2ncnc3cnc(N4CC5(CC5)CO4)nc23)ccc1Oc1ccc2c(c1)ncn2C : 38.4
Cc1cc(Nc2ncnc3cnc(N4CCC[C@@H]4C(C)(C)O)nc23)ccc1Oc1ccc2c(c1)ncn2C : 67
Cc1cc(Nc2ncnc3cnc(N4CC[C@H](CC#N)C4)nc23)ccc1Oc1ccc2c(c1)ncn2C : 19.1
Cc1cc(Nc2ncnc3cnc(NC4CC(F)(F)C4)nc23)ccc1Oc1ccc2c(c1)ncn2C : 104
Cc1cc(Nc2ncnc3cnc(N4CCCC45COC5)nc23)ccc1Oc1ccc2c(c1)ncn2C : 25.8
Cc1c(Oc2ccc3c(c2)ncn3C)ccc(Nc2ncnc3cnc(N4CC[C@](C)(O)C4)nc23)c1F : 14.2
O[C@@H]1[C@@H]2CC[C@H]1CN(c1ncc3ncnc(Nc4ccc(Oc5ccn6ncnc6c5)c(Cl)c4)c3n1)C2 : 12.7
CN(CCC(C)(C)O)c1ncc2ncnc(Nc3ccc(Oc4ccc5c(c4)ncn5C)c(Cl)c3)c2n1 : 26.5
Cc1cc(Nc2ncnc3cnc(N4CCC[C@H]4C(F)F)nc23)ccc1Oc1ccc2c(c1)ncn2C : 110
Cc1cc(Nc2ncnc3cnc(N4C[C@@H](C)O[C@@H](C)C4)nc23)ccc1Oc1ccc2c(c1)ncn2C : 172
Cc1c(Oc2ccn3ncnc3c2)ccc(Nc2ncnc3cnc(N4CC[C@](C)(O)C4)nc23)c1F : 28.3
Cc1cc(Nc2ncnc3cnc(N4CCC5COCC54)nc23)ccc1Oc1ccn2ncnc2c1 (stereo not drawn) : 8.2
Cc1cc(Nc2ncnc3cnc(N4CCN[C@H](C)C4)nc23)ccc1Oc1ccc2c(c1)ncn2C : 16
Cc1cc(Nc2ncnc3cnc(N4CC[C@H](OC(F)F)C4)nc23)ccc1Oc1ccn2ncnc2c1 : 26.4
Cc1cc(Nc2ncnc3cnc(N4CC[C@H](S(C)(=O)=O)C4)nc23)ccc1Oc1ccc2c(c1)ncn2C : 26.8
Cc1c(Oc2ccc3c(c2)ncn3C)ccc(Nc2ncnc3cnc(N4C[C@H]5C[C@@H]4CO5)nc23)c1F : 25.1
Cc1cc(Nc2ncnc3cnc(N(C)[C@H]4C[C@@](C)(O)C4)nc23)ccc1Oc1ccc2c(c1)ncn2C : 7.5
Cc1cc(Nc2ncnc3cnc(N4CC[C@H](O)C4)nc23)ccc1Oc1ccc2c(c1)ncn2C : 11.5
FC(F)O[C@@H]1CCN(c2ncc3ncnc(Nc4ccc(Oc5ccn6ncnc6c5)c(Cl)c4)c3n2)C1 : 27.6
Cc1cc(Nc2ncnc3cnc(N4CC5(CC5)CS4(=O)=O)nc23)ccc1Oc1ccc2c(c1)ncn2C : 35.1

----------
target: ErbB2 WT (Homo sapiens (Human), UniProt P04626); experiment: ErbB enzyme assay (CisBio HTRF KinEASE-TK), Assay 2; format: biochemical
Sequence (P04626 23-1255): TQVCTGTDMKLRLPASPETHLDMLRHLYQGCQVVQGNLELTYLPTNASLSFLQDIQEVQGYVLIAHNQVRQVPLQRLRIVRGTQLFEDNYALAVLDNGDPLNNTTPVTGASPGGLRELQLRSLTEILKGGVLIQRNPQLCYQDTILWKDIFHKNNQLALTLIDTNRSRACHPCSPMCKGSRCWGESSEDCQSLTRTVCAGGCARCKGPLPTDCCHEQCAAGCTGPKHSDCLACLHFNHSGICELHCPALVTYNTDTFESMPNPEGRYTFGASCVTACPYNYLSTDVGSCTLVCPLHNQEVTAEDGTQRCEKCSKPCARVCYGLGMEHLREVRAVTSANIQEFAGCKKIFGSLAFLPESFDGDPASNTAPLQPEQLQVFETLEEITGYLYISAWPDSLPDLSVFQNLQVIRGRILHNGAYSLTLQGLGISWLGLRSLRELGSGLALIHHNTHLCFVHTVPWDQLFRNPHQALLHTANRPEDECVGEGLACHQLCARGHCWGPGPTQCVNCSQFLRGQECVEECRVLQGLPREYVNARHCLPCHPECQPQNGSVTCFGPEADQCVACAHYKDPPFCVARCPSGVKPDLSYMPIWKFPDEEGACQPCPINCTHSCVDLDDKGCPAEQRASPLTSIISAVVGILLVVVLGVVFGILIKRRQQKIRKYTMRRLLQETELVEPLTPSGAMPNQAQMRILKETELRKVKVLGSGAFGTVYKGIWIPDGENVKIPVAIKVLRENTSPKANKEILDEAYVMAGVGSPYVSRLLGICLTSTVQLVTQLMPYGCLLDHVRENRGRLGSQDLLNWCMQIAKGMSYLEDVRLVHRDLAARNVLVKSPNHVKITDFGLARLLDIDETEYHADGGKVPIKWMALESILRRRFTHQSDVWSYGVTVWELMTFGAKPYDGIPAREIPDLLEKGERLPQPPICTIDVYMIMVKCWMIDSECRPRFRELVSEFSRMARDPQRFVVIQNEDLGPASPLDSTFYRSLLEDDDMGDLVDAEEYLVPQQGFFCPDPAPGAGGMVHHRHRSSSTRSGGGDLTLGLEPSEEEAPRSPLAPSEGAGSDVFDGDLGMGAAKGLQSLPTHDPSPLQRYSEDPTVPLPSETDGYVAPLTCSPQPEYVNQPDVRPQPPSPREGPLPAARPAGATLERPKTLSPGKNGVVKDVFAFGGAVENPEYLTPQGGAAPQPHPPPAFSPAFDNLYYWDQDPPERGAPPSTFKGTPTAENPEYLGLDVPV
pIC50: −log10 of the molar value.
Rule: pIC50 of 7 or more gives rule met; anything lower gives rule not met.

Clc1cc(Nc2ncnc3cnc(N4CCC4)nc23)ccc1Oc1ccn2ncnc2c1 : rule met
Cc1cc(Nc2ncnc3cnc(N4CCCC4)nc23)ccc1Oc1ccc2c(c1)ncn2C : rule met
Cc1cc(Nc2ncnc3cnc(N(C)[C@H]4CCCOC4)nc23)ccc1Oc1ccn2ncnc2c1 : rule met
Cn1cnc2cc(Oc3ccc(Nc4ncnc5cnc(N6C[C@@H]7C[C@H]6CO7)nc45)cc3Cl)ccc21 : rule not met
CNc1ncc2ncnc(Nc3ccc(Oc4cc(F)c5c(c4)ncn5C)c(C)c3)c2n1 : rule met
Cc1c(Oc2ccc3c(c2)ncn3C)ccc(Nc2ncnc3cnc(N4CC[C@H]4C(C)(C)O)nc23)c1F : rule not met
Cc1cc(Nc2ncnc3cnc(N4C[C@@H](C)[C@H](O)C4)nc23)ccc1Oc1ccc2c(c1)ncn2C : rule met
Cc1cc(Nc2ncnc3cnc(N(C)CC(C)(C)O)nc23)ccc1Oc1ccc2c(c1)ncn2C : rule met
Cc1cc(Nc2ncnc3cnc(N[C@H]4CCOC4)nc23)ccc1Oc1ccc2c(c1)ncn2C : rule met
Cc1cc(Nc2ncnc3cnc(O[C@H]4CNCC[C@@H]4F)nc23)ccc1Oc1ccc2c(c1)ncn2C : rule not met
Cc1cc(Nc2ncnc3cnc(N4CCC[C@@H]4C(F)F)nc23)ccc1Oc1ccc2c(c1)ncn2C : rule not met
CN(CCC(C)(C)O)c1ncc2ncnc(Nc3ccc(Oc4ccc5c(c4)ncn5C)c(Cl)c3)c2n1 : rule met
CON1CCN(c2ncc3ncnc(Nc4ccc(Oc5ccc6c(c5)ncn6C)c(C)c4F)c3n2)CC1 [Example 142, 2,2,2-trifluoroacetate] : rule met
Cc1cnc(-c2ncc3ncnc(Nc4ccc(Oc5ccc6c(c5)ncn6C)c(C)c4)c3n2)o1 : rule not met
CC1(C)CN(c2ncc3ncnc(Nc4ccc(Oc5ccn6ncnc6c5)c(Cl)c4)c3n2)CC[C@@H]1O : rule met
Cc1cc(Nc2ncnc3cnc(-c4cscn4)nc23)ccc1Oc1ccc2c(c1)ncn2C : rule met
Cc1cc(Nc2ncnc3cnc(N4CC5(CCC5O)C4)nc23)ccc1Oc1ccc2c(c1)ncn2C (stereo not shown) : rule met
C[C@H]1CN(c2ncc3ncnc(Nc4ccc(Oc5ccn6ncnc6c5)c(Cl)c4)c3n2)C[C@@H]1O : rule met
Cc1cc(Nc2ncnc3cnc(N4CCCO4)nc23)ccc1Oc1ccn2ncnc2c1 : rule not met
Cc1cc(Nc2ncnc3cnc(N4C[C@H]5C[C@@H]4C[C@@H]5O)nc23)ccc1Oc1ccc2c(c1)ncn2C : rule met
Cc1cc(Nc2ncnc3cnc(N[C@@H]4CCOC4)nc23)ccc1Oc1ccc2c(c1)ncn2C : rule met
Cc1cc(Nc2ncnc3cnc(N4CC5(CCN(C)C5=O)C4)nc23)ccc1Oc1ccc2c(c1)ncn2C : rule not met

----------
Here, each record is paired with measured pIC50 data.
target: ErbB2 insYVMA (HER2-YVMA, SEQ ID NO: 2) (Homo sapiens, UniProt P04626, INS775YVMA/P1170A); assay: biochemical; conditions: ErbB2 insYVMA enzyme assay; read-out: Assay 1 IC50
pIC50: −log10 of the molar value.
ATTRIBUTE MEASURED: pIC50

Cc1cc(Nc2ncnc3cnc(N4CC[C@@](C)(O)C4)nc23)ccc1Oc1ccc2c(c1)ncn2C : 7.99
Cc1cc(Nc2ncnc3cnc(N4CC[C@](C)(O)C4)nc23)ccc1Oc1ccc2c(c1)ncn2C : 8.00
CC1(C)CN(c2ncc3ncnc(Nc4ccc(Oc5ccn6ncnc6c5)c(Cl)c4)c3n2)C[C@H]1O : 7.33
Cc1cc(Nc2ncnc3cnc(N4CCN[C@@H](C(F)(F)F)C4)nc23)ccc1Oc1ccn2ncnc2c1 : 7.53
